- target desc: T1, DFNB31_3, Q9P202
- T1 sequence (Q9P202 811-907, limits assumed, looked up): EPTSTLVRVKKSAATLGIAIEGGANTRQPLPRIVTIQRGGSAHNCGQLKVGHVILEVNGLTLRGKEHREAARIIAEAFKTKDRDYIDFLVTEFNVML
- test name: holdup assay
- Parameters: key: below the threshold = too weak to quantify, mostly under pKd 3.1 to 4
- condition notes: plain residues with an end cap or a label only (N-terminal biotin on a linker: ado-ado)
quantity kind: pKd

Here's what some known entries look like.
MLSKQSESAI [FLVCR1, Q9Y5Y0]; below the threshold
IPLDGETEEL [MYOZ1, Q9NP98]; below the threshold
QPCFNKLFPL [LPXN, O60711]; below the threshold
EVNETDDTKM [KCNJ1, P48048]; below the threshold
ETQVTAETVI [TMEM225B, P0DP42]; 4.03
KKAPTNEFYA [SDC4, P31431]; 3.85

Asked: Which pKd is reported for this binder? VNKSKLLTDV [KCNA1, Q09470]
Given back: 3.56

Asked: Quick one: TLPRKRMSSI [GPRC6A, Q5T6X5]
Given back: below the threshold
